- Species: Homo sapiens
- assay: Cytotoxicity against the cancer cell lines colon HCT116
- Format: functional
recorded metric: GI50 (µM)
The reply should contain only the number, in µM.

Documented GI50 of C#Cc1cc2c(cc1O)CC[C@@H]1[C@@H]2CC[C@]2(C)[C@@H](O)CC[C@@H]12 : 3.9

Documented GI50 of COc1cc2c(cc1O)CC[C@@H]1[C@@H]2CC[C@]2(C)[C@@H](O)CC[C@@H]12 [2-METHOXYESTRADIOL] : 0.47

Documented GI50 of C[C@]12CC[C@@H]3c4cc(C#Cc5ccccc5)c(O)cc4CC[C@H]3[C@@H]1CC[C@@H]2O : 14

Documented GI50 of COc1cc(/C=C/c2cc3c(cc2O)CC[C@@H]2[C@@H]3CC[C@]3(C)[C@@H](O)CC[C@@H]23)cc(OC)c1OC : 3.2
